# PROCEDURE_TEXT: Survival and viability of Vero cells
# EXPERIMENTAL_SETUP: monkey, vero cells
OBSERVED_PROPERTY: viability at 500 µM

Prompt line: Give the measured viability at 500 µM for Nc1nc2c(ncn2[C@H]2C[C@H](O)[C@@H](CO)O2)c(=O)[nH]1 [dGuo, 2'-deoxyguanosine]
Response line: 88%

---

# PROCEDURE_TEXT: Inhibition of proliferation (MTC), MT4 cells
# Format: cell-based
# EXPERIMENTAL_SETUP: human, highest concentration tested
OBSERVED_PROPERTY: MCC

Prompt line: Give the measured MCC for COCc1cn([C@H]2C[C@H](O)[C@@H](CO)O2)c(=O)nc1N
Response line: > 400 µg/mL
